Listing of entries alongside the reported melting point.

# input Name the recorded melting point for Cc1ccc(-c2nnc(N3CCCC(O)C3)nc2-c2ccc(C)cc2)cc1 (stereo not given) .
# output 122 to 125 °C

# input // next record CC(=O)Oc1ccccc1-c1ccc(C(C)=O)cc1
# output 116 to 117 °C

# input Same question for CC(C)(C)c1cc(SC(Sc2cc(C(C)(C)C)c(O)c(C(C)(C)C)c2)c2ccccc2)cc(C(C)(C)C)c1O please.
# output 122 to 124 °C

# input Now try CC(C)(C)NC(=O)[C@@H]1C[C@H](Cl)CN1C(=O)[C@@H](O)[C@H](Cc1ccccc1)N(Cc1ccccc1)Cc1ccccc1 .
# output 64 to 67 °C

# input Try this compound too: CC(=O)Nc1scc(C)c1C(=O)c1ccccc1Cl
# output 148 to 149 °C

----------
Catalogue of compounds with associated melting point

COMPOUND	melting point
NC(=O)c1cc(-c2ccncc2)sc1-c1ccncc1	240 to 242 °C
CCCc1c(COc2ccc(Cc3nnnn3CC(=O)O)cc2)ccc(C(C)=O)c1O	205 to 210 °C
Cc1c(F)c([N+](=O)[O-])cc2oc(=O)[nH]c12	194 to 196 °C
CCc1nc2cnc3cc(OCc4ccccc4)ccc3c2n1CC(C)C	127 °C
CSc1coc2ccccc2c1=O	103 to 105 °C

# input Quick check: melting point of Cc1cc([C@H]2[C@H](C(=O)Nc3ccc(F)c(F)c3)C2(C)C)ccc1S(N)(=O)=O (relative stereo) ?
# output 195 to 198 °C

# input Here is the next compound: CCC(CC(Oc1ccccc1)C(=O)O)Oc1ccc(Cl)cc1 (stereo unspecified)
# output 94 °C

# input Follow-up entry: COC(=O)C(C)Oc1ccc(NC(=O)OCCOC(=O)Nc2ccc(OC(C)C(=O)OC)cc2)cc1 (stereo unspecified)
# output 98 to 100 °C

# input For O=S(=O)(Nc1cccc2c(Cl)c[nH]c12)c1ccc(CCCn2ccnc2)cc1 then?
# output 86 to 90 °C

# input // query: O=c1c2ccccc2nc(-c2sc(Nc3ccc(Cl)cc3)nc2-c2ccccc2)n1-c1ccccc1
# output > 275 °C

# input Can you check Cc1cccc(NC(=O)NC2CN(Cc3ccccc3)c3ccccc3N(CC(=O)c3ccccc3C)C2=O)c1 (stereo unspecified) next?
# output 169 to 172 °C

# input Could you do the same for COc1cccc2c1CC(=O)CO2 , please?
# output 53 to 54 °C

# input Another: CCOC(=O)c1sc(C(=O)OCC)c2c1OCC(CC)(CC)CO2
# output 100 °C

# input // query: O=C(C(Cl)Cl)N1CCC2(CC1)OCCO2
# output 102 °C

# input Ok, now C=C1NC(=O)N(CCCC)C1=O
# output 73 °C

# input Another compound to check: Nc1cnc(-c2ccncc2)c(-c2cccc(F)c2)n1
# output 221 to 222 °C

----------
MEASURED_ENDPOINT: melting point

Look over these answered cases.
COMPOUND	MEASURED_ENDPOINT	MEASURED
CN1C(=O)CC[C@]2(C)c3ccc(NC(=O)c4ccc([N+](=O)[O-])cc4)cc3CC[C@@H]12	melting point	269 to 270 °C
O=C(NC/C=C\COc1cc(CN2CCCCC2)ccn1)c1csnn1	melting point	70 to 72 °C
Cc1oc(-c2ccccc2)nc1COc1cccc(COc2cc(Cl)ccc2C(=O)O)c1	melting point	168 °C
O=C(CN1CC=CCC1)NC(=O)N1CCN2C(=O)OC(c3ccccc3)(c3ccccc3)C2C1 (stereo unspecified)	melting point	156 to 157 °C
O=S1(=O)NCN(C2CC2)c2c1ccc(Cl)c2Cl	melting point	132 to 133 °C

# input I would be grateful if you could share the reported melting point for CCCCCCCCCCCCCCCCCCOc1cc(SC)cc(N(CC(=O)O)CC(=O)O)c1 .
# output 129 to 130 °C

# input Consider next the compound NC(=O)CN1C(=O)COc2cc(F)c(N3C(=O)C4=C(CCCC4)C3=O)cc21 in the same way.
# output 283 to 286 °C

# input // next record CC(C)(C)OC(=O)Nc1ccc2ccc(S(=O)(=O)N(Cc3ccccc3)Cc3ccccc3)cc2c1
# output 139 to 140 °C

# input Also need O=C(O)c1ccc2c(c1)C(=O)CCC2 , thanks.
# output 210 to 215 °C

# input One more compound: CC1C(=O)N(c2ccccc2)C(=S)N1c1ccc(Oc2ccccc2)cc1 (stereo unspecified)
# output 141 °C

# input Check COc1ccc(/C=C/C(=O)/C=C/C(=O)O)c(OC)c1OC too.
# output 125 to 127 °C

----------
Reported melting point values for a set of compounds

COMPOUND	melting point
CC1(C)CCC(C)(C)c2cc3cc(-c4csc(C(=O)O)c4)ccc3cc21	207 to 208 °C
C=CC(=O)N(C)c1cccc2c(=O)c(C)c(-c3ccccc3)oc12	136 to 137 °C
CC1(C)C=Cc2cc(C#N)c([N+](=O)[O-])cc2O1	154 to 155 °C
c1ccc2c(c1)Sc1ccccc1C1=C2CCNCC1	142 to 143 °C

Next up:
# input What does the data say about its melting point? Entry: Cc1cc(C)cc(NCc2ccc3nc(NCC(O)CO)n(Cc4nc(C)ccc4O)c3c2)c1 (stereo not given)
# output 128 °C

----------
MEASURED_ENDPOINT: melting point

COMPOUND	melting point
CCOC(=O)c1nc(-c2cccnc2)[nH]c1N=NN(C)C	125 °C
COc1ccc2cc([C@H](C)C(=O)OC[C@](C)(O)CO)ccc2c1	65 to 66 °C
C=Cc1c(-c2ccccc2)coc1C(=O)NNC(=O)c1ccc(O)c(C#N)c1	170 to 174 °C
COc1ccc(CC2N(C)CCC(O)(c3ccccc3)C2(C)C)cc1 (configuration not stated)	122 to 124 °C
CS(=O)(=O)c1ccc(-c2cnn(CC(F)(F)F)c(=O)c2C2CCCCC2)cc1	215 to 218 °C
CC1(C)CC(OC(=O)Nc2ccccc2)CC(C)(C)N1CC(OC(=O)Nc1ccccc1)c1ccccc1 (configuration not stated)	173 °C

Next:
# input What melting point value was documented for this compound, CC(C)C(=O)NCc1cccc2c1C(=O)N(C1CCC(=O)NC1=O)C2=O (configuration not stated) ?
# output 218 to 220 °C

----------
MEASURED_ENDPOINT: melting point

COMPOUND_STRUCTURE_STRING	melting point
O=c1[nH]nc(CO)c2ccccc12	199 to 201 °C
CC(C)OC(=O)N1c2ccccc2Sc2cc(O)c3ccccc3c21	205 to 206 °C

We now examine a further compound.
# input Quick check: melting point of CSCCNC(=O)N(C)c1cnc(-c2cncc(F)c2)s1 ?
# output 117 to 119 °C

----------
Some molecules, each annotated with its measured melting point.

COMPOUND_STRUCTURE_STRING	melting point
O=C(O)c1ccc(Oc2ccc3c(c2)CCN(CCN2CCCC2)C3=O)cc1	99 to 100 °C
COc1cc(NS(C)(=O)=O)cc(OC)c1-c1ccc(C[C@H](NC(=O)c2c(Cl)cccc2Cl)C(=O)O)cc1	154 to 155 °C

# input So what's the measured melting point for this one? CCOP(=O)(/C=C/c1cn(-c2ccccc2)nc1OCc1ccc(OCc2nc(N3CCC(C(=O)O)CC3)sc2C)c(OC)c1)OCC
# output 159 to 160 °C

----------
Known melting point of a selection of compounds

Examples with answers:
COMPOUND	melting point
CCOC(=O)C(Cc1ccccc1)=NO	54 to 55 °C
CC(C)(CO)Nc1nc(-c2cccc(C#N)c2)cs1	124 to 126 °C

Pending compound:
# input Recorded melting point for COc1ccc(N2CCN(c3c(C)c(C)c4c(c3C)C(N3CCCC3)C(C)(C)O4)CC2)cc1OC (stereo not drawn) , please?
# output 128 to 130 °C

----------
As shown below, each of these compounds has a reported melting point value.

Answered examples (2):
COMPOUND_STRUCTURE_STRING	melting point
CCCOc1ccnc2[nH]ccc12	189 to 191 °C
CC(C)c1c(CO)c(-c2ccc(F)cc2)nn1-c1ccccc1	144 to 147 °C

Please examine the following record next.
# input Query (compound): Cn1cc(OS(C)(=O)=O)c(=O)c2ccc(Cl)cc21 ; field requested: melting point
# output 157 to 158 °C

----------
Readings of melting point for the listed molecules

# input Look up melting point: c1ccc(Cc2nnc(Nc3cccc(-n4ccnc4)c3)c3ccccc23)cc1
# output 214 to 217 °C

# input Can you handle CN(C)C1(c2ccccc2)CCC(NC2c3ccccc3-c3ccccc32)CC1 (configuration not stated) next?
# output 202 to 205 °C

# input What about O=c1c(CCCc2ccncc2)cc2cccnc2n1-c1ccc2nsnc2c1 ?
# output 194 to 196 °C

# input // query: CC1(C)CC(c2cccc(C(F)(F)F)c2)c2ccc(O)cc2O1 (configuration not stated)
# output 63 to 68 °C

# input COc1c(C)c(N2CCN(c3ccc(C)cc3)CC2)c(C)c2c1OC(C)C2 (configuration not stated) ?
# output 82 to 84 °C

# input Entry to check: O=C(NCCO)/C(=C/c1ccc(Cl)cc1)NC(=O)c1ccc(OCCc2ccc(F)cc2)cc1
# output 60 to 63 °C

# input O=Cc1ccc(C#Cc2cc3ncnc(Nc4ccc(OCc5cccc(F)c5)c(Cl)c4)c3s2)o1 ?
# output 229 °C
